Reference source: ChEMBL document CHEMBL1201862

Test system: Hs-578T
assay name: NCI tumour cell line growth inhibition, 48 h
The source made the active and inactive calls. Cut-off read from the data, not from the text of the source: active = GI50 up to about 1.1 µM and inactive = higher.
Each item that follows carries a reported GI50.

>  <compound>
O=C1C(Cl)=C(N2CCN(c3ncccn3)CC2)C(=O)c2c(O)ccc(O)c21

>  <GI50>
2.9 µM (inactive)

$$$$

GET /values?readout=GI50&item= Cc1nc(SCC(=O)Nc2ccccc2)c2sc(=S)n(-c3ccccc3)c2n1
4.25 µM (inactive)

====

Tested on: RPMI-8226
assay name: NCI tumour cell line growth inhibition, 48 h
The source made the active and inactive calls. Rule as the data show it: active = GI50 up to about 1.1 µM and inactive = higher.
Pick one: class 1 for active, class 0 for inactive

Examples with answers:
>  <molecule>
CC(C)C(=O)CC(Sc1ccc(N)cc1)c1ccccc1 (stereo unspecified)

>  <assigned label>
class 0

$$$$
>  <molecule>
C[C@@]12C[C@@H](c3ccccc3O1)N1CCCSC1=N2

>  <assigned label>
class 0

$$$$
>  <molecule>
O=c1c2cc(Cl)ccc2n2nnc3ccc(NCCNCCO)c1c32

>  <assigned label>
class 0

$$$$
>  <molecule>
Clc1cc2nc(C3CCCCO3)[nH]c2cc1Cl (stereo unspecified)

>  <assigned label>
class 0

$$$$
>  <molecule>
COc1cc(C(=O)NC(CCN)(c2ccccc2)c2ccccc2)cc(OC)c1OC

>  <assigned label>
class 0

$$$$
>  <molecule>
O=C(O)C1=CN(c2ccncc2)C(c2ccco2)=CC1c1ccccc1[N+](=O)[O-] (stereo unspecified)

>  <assigned label>
class 0

$$$$

Kindly provide the recorded test outcome for the following molecule: CC(C)(CN1CCCCC1)C(=O)/C=C/c1ccc(/C=C/C(=O)C(C)(C)CN2CCCCC2)cc1
class 1

Returns: the outcome recorded for COC(=O)c1ccccc1/C=C1/Cc2cccc(C)c2C1=O in this assay.
class 0

====

Tested on: COLO 205
assay name: NCI tumour cell line growth inhibition, 48 h
The source made the active and inactive calls. No stated cut-off is given here; in the data, active = GI50 up to about 1.1 µM and inactive = higher.
Allowed answers: active, inactive

Illustrative cases are given below, each with its answer.
>  <compound>
C=C1COC(O)(C2OCOC(C3CC(=O)NC(=O)C3)C2O)C1C (configuration not stated)

>  <system under test>
COLO 205

>  <assigned label>
active

$$$$
>  <compound>
CCN1C(=O)C(=C/C=C/c2ccc(OC)cc2)C(=O)N(CC)C1=S

>  <system under test>
COLO 205

>  <assigned label>
inactive

$$$$
>  <compound>
COC(=O)[C@]1(C)[C@H]2C[C@H]3O[C@H]4[C@H](O)[C@@H](O)OC(CC(O)C(C5=CC(=O)OC5)C(C5=CC(=O)OC5)C(O)CC56CCCCC7[C@@H](C)[C@H](C[C@H]8[C@](C)(C(=O)OC)[C@H](O)CC[C@]78C)O[C@H]([C@@H](O)[C@H](O)O5)[C@H]6O)(CCCCC([C@@H]3C)[C@]2(C)CC[C@@H]1O)[C@H]4O (some centres not stated)

>  <system under test>
COLO 205

>  <assigned label>
active

$$$$

Which result was noted for this compound in the test: COc1nc2c(c(=O)n1C)N[C@H]1[C@H](OC(C)=O)[C@@H](OC(C)=O)CO[C@H]1N2
inactive

Call for entry OC[C@H](O)[C@@H](OCc1ccccc1)[C@H](NCc1ccccc1)c1cccs1 :
inactive

For CCOC(=O)CC[C@H](NC(=O)c1nc[nH]c1[N+](=O)[O-])C(=O)OCC , which call appears in the assay record?
inactive

Recorded test call requested for C=C(c1nc2ccc(Cl)cc2[nH]c1=O)C(O)c1ccc(C(O)C(=O)c2nc3ccc(Cl)cc3[nH]c2=O)cc1 (configuration not stated)
inactive

Field: outcome | Entry: O=C(Nc1nnc(S)[nH]1)C(=O)C(c1cnc2ccc([N+](=O)[O-])cc2n1)[N+](=O)[O-] (configuration not stated)
inactive

Can you look up the reported call for O=C(c1ccccc1)C1(Br)S(=O)(=O)OCCOS1(=O)=O for me?
inactive

Field: outcome | Entry: CC(=O)NC1C(OCC(=O)NC(C)C(=O)NC(CCC(=O)NCCCCCNc2ccc([N+](=O)[O-])c3[nH]c4ccccc4c(=O)c23)C(N)=O)C(O)C(CO)OC1(C)OCc1ccccc1 (configuration not stated)
inactive

====

Tested on: SNB-19
assay name: NCI tumour cell line growth inhibition, 48 h
Active and inactive are the calls of the source. Rule as the data show it: active = GI50 up to about 1.1 µM and inactive = higher.
Listing of entries alongside the reported GI50.

Completed entries (count: 3):
>  <compound>
CCOc1ccc(/N=C/c2ccnc3ccccc23)cc1

>  <observation type>
GI50

>  <result>
82.8 µM (inactive)

$$$$
>  <compound>
N#C/C(c1nc2ccccc2[nH]1)=c1\s/c(=C/c2ccc(Cl)cc2)c(=O)n1-c1ccccc1

>  <observation type>
GI50

>  <result>
> 100 µM (inactive)

$$$$
>  <compound>
C[C@H](C1CC2(C)OC2(C)C(=O)O1)[C@H]1CC[C@H]2[C@@H]3[C@@H]4O[C@@H]4[C@@]4(O)CC=CC(=O)[C@]4(C)[C@H]3CC[C@]12C (some centres undefined)

>  <observation type>
GI50

>  <result>
29.6 µM (inactive)

$$$$

Shifting focus to the compound that follows.
Reported GI50, compound S=C(Nc1ccccn1)Nc1ccccc1Cl : ____
27 µM (inactive)

====

A collection of compounds and their measured GI50
System: SF-268
assay name: NCI tumour cell line growth inhibition, 48 h
Calls of active or inactive are those of the source. Cut-off read from the data, not from the text of the source: active = GI50 up to about 1.1 µM and inactive = higher.

Field: example entries. Status: answers known.
>  <compound>
Cc1nc2ccccc2c(=O)[nH]1

>  <GI50>
> 100 µM (inactive)

$$$$
>  <compound>
O=C1c2[nH]c3ccc(Br)cc3c2CCN1Cc1ccc(Cl)cc1

>  <GI50>
12.7 µM (inactive)

$$$$
>  <compound>
COc1c(-c2nc3ccc(N4CCN(C)CC4)nc3[nH]2)cc(OC)c2c1nc(COC(C)=O)n2C

>  <GI50>
> 100 µM (inactive)

$$$$
>  <compound>
CC(C)C1C(=O)N2CCCC2C2(O)OC(NC(=O)C3C=C4c5cccc6[nH]cc(c56)CC4N(C)C3)(C(C)C)C(=O)N12 (stereo unspecified)

>  <GI50>
41.1 µM (inactive)

$$$$
>  <compound>
CN(C)c1n/c(=N/Cc2ccco2)ss1

>  <GI50>
11.7 µM (inactive)

$$$$
>  <compound>
Cc1cc(N(CCC#N)S(C)(=O)=O)ccc1C=O

>  <GI50>
> 100 µM (inactive)

$$$$
>  <compound>
O=C(CC1=Nc2nnc(-c3nnc4n3C(=O)C(CC(=O)c3cccnc3)=N4)n2C1=O)c1cccnc1

>  <GI50>
> 100 µM (inactive)

$$$$
>  <compound>
S=C(Nc1ccccn1)Nc1ccccc1Cl

>  <GI50>
> 43.8 µM (inactive)

$$$$

Could you tell me which GI50 is on file for COc1cc2c(cc1OCCOS(C)(=O)=O)N=C[C@@H]1CCCN1C2=O ?
70.1 µM (inactive)

Any idea what GI50 was measured for NCCCC[C@H](N)C(=O)Nc1ccc(-c2nc3ccccc3s2)cc1 ?
23.2 µM (inactive)

What value of GI50 has been recorded for this entry: Cc1nn2c3c(nnc2c1C#N)C(=O)NN=C(N)S3
> 100 µM (inactive)

====

System: BT-549
assay name: NCI tumour cell line growth inhibition, 48 h
The source made the active and inactive calls. Rule as the data show it: active = GI50 up to about 1.1 µM and inactive = higher.
# key: entry, value: GI50

>  <compound>
COC(c1ccc(C(C)(C)C)cc1)(c1ccc(C(C)(C)C)cc1)c1ccc(C(C)(C)C)cc1

>  <result>
> 100 µM (inactive)

$$$$
>  <compound>
C=CC(OC(C)=O)c1ccc(OC(C)=O)cc1 (stereo unspecified)

>  <result>
8.93 µM (inactive)

$$$$
>  <compound>
CC1CNC(c2ccc(CN3CCC(C4CCN(Cc5ccc(C6=NC(C)CN6)cc5)CC4)CC3)cc2)=N1 (stereo unspecified)

>  <result>
> 100 µM (inactive)

$$$$
>  <compound>
COc1ccc2nc3ccccc3c(NCCN(C)CCCl)c2c1

>  <result>
0.9 µM (active)

$$$$

I would be grateful if you could share the reported GI50 for COc1ccc(/C=C2\c3cc(OC)c(OC)cc3CCN2C(=O)c2ccccc2)cc1OC .
27.7 µM (inactive)

Please look up its GI50: O=C(O)[C@H]1NC[C@H]2C(Br)=NO[C@@H]12
> 100 µM (inactive)

What does the data say about its GI50? Entry: COc1cc2ccc(C(C)NCC#N)cc2cc1OC (stereo unspecified)
> 100 µM (inactive)

Record request: GI50 value, item CCCC(=O)OCC1OC(n2cc(F)c(=O)[nH]c2=O)CC1OC(=O)CCC (stereo unspecified)
0.376 µM (active)

Entry C/C(=N\NC(=O)CC#N)C(CN1CCCCC1)C(c1ccccc1)c1c(O)c2ccccc2oc1=O (stereo unspecified) : reported GI50 = ?
54.2 µM (inactive)

Any idea what GI50 was measured for CC(C)Nc1[nH]c(C(=O)c2ccccc2)c(N)c1C(=S)Nc1ccccc1 ?
> 100 µM (inactive)

Value lookup for GI50; key = CN1CCN(c2c(Cl)cc(Cl)c3[nH]c4ccccc4c(=O)c23)CC1
16.1 µM (inactive)

GET /values?readout=GI50&item= COc1cc(/C=C/C(=O)O)ccc1OS(=O)(=O)O
> 100 µM (inactive)

# input compound: O=c1c(/C=C/c2c(O)ccc3ccccc23)nnc2sc(-c3cccc([N+](=O)[O-])c3)nn12 ; wanted: its GI50
17.2 µM (inactive)
